target-entity: LATS1 Kinase-NanoLuc fusion in HEK-293 cells (Homo sapiens)
Construct: host or cells: HEK-293
Sequence (O95835 whole entry, the tested form may be a part): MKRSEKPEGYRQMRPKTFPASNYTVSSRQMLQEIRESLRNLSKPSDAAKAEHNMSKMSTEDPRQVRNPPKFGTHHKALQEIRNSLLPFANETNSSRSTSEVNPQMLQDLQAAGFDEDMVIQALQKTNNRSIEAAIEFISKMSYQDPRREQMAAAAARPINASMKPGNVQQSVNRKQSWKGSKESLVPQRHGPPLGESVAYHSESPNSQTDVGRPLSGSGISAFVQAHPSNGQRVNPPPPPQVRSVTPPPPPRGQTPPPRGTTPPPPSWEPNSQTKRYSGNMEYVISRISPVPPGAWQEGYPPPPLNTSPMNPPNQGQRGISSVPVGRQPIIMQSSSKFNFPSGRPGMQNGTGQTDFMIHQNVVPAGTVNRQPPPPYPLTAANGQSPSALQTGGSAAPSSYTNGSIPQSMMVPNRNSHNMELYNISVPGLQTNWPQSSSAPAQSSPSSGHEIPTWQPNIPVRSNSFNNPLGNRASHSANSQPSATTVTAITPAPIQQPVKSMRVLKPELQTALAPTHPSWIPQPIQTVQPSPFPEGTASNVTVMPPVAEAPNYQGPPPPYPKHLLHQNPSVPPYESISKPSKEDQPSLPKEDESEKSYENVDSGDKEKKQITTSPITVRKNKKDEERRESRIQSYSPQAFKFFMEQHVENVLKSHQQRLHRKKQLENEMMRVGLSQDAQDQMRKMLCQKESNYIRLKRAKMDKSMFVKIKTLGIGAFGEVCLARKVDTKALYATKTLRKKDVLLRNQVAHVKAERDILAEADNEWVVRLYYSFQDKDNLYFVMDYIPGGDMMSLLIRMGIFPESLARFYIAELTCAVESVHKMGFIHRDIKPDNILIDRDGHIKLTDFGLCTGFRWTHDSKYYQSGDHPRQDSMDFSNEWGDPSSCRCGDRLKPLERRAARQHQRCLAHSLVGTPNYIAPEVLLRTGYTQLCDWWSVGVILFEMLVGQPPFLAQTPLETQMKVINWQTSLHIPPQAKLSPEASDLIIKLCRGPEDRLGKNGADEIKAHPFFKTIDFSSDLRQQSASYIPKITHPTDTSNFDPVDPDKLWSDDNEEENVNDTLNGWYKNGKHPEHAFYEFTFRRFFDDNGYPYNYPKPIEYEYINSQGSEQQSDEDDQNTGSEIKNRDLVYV
procedure-text: NanoBRET target engagement assay in transfected HEK-293 cells, LATS1
Type: cell-based
assay-context: Table 28, NanoBRET, HEK-293 cells; read-out: LATS1 (Cellular) IC50
pIC50: −log10 of the molar value.
Recorded pIC50 for the following molecules

>  <molecule>
COC(=O)c1c[nH]c2nccc(-c3cc(C)c([C@@]4(O)[C@H](C)CN(C(=O)CN)C[C@@H]4C)c(F)c3)c12 [Compound 310]

>  <pIC50>
5.34

$$$$
>  <molecule>
C[C@@H]1CN(C2COC2)C[C@H](C)[C@@]1(O)c1c(F)cc(-c2ccnc3[nH]cc(F)c23)cc1F [Compound 45]

>  <pIC50>
6.09

$$$$
>  <molecule>
C[C@@H]1CNC[C@H](C)[C@@]1(O)c1ccc(-c2ccnc3[nH]cc(F)c23)nc1 [Compound 8]

>  <pIC50>
7.22

$$$$
>  <molecule>
C[C@@H]1CNC[C@H](C)[C@@]1(O)c1ccc(-c2ccnc3[nH]cc(F)c23)cc1 [Compound 2]

>  <pIC50>
6.26

$$$$
>  <molecule>
OC1(c2ccc(-c3ccnc4[nH]cc(F)c34)cc2)CC2(CNC2)C1 [Compound 319]

>  <pIC50>
4.56

$$$$
>  <molecule>
NCc1ccc(-c2ccnc3[nH]ccc23)cc1C(F)(F)F [Compound 284]

>  <pIC50>
4.46

$$$$
>  <molecule>
NCc1ccc(-c2ccnc3[nH]ccc23)cc1 [Compound 287]

>  <pIC50>
4.64

$$$$
>  <molecule>
Cc1cc(-c2ccnc3[nH]ccc23)ccc1CN [Compound 266]

>  <pIC50>
5.17

$$$$

* * *

Below: a set of entries, each annotated with reported IC50.
target-entity: AKT (Homo sapiens)
Sequence (P31749 whole entry): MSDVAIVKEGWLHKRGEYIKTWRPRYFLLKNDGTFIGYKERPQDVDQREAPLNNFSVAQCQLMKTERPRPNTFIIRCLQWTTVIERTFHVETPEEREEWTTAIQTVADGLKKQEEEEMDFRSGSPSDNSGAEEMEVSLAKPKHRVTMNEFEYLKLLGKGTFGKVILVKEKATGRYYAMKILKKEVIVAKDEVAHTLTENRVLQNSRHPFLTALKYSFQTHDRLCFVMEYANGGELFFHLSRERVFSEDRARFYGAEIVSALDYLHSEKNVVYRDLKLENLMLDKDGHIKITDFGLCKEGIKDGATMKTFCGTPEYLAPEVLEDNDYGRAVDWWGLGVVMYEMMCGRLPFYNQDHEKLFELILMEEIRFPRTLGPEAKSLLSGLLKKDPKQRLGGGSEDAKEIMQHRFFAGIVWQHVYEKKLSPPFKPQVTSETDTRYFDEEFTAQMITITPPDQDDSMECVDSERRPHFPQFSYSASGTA
procedure-text: RBC HotSpot kinase assay (33P-ATP, P81 filter-binding), AKT
Assay type: biochemical
assay-context: Table 28, biochemical kinase assay; read-out: AKT IC50

>  <molecule>
CNCC(=O)N1C[C@@H](C)C(O)(c2c(F)cc(-c3ccnc4[nH]cc(F)c34)cc2F)[C@@H](C)C1 (stereo partly drawn) [Compound 83]

>  <readout-qualifier>
=

>  <IC50 [nM]>
570

$$$$
>  <molecule>
O=S1(=O)CCC(N2CC3(C2)CC(O)(c2c(F)cc(-c4ccnc5[nH]cc(F)c45)cc2F)C3)CC1 [Compound 140]

>  <readout-qualifier>
=

>  <IC50 [nM]>
1580

$$$$
>  <molecule>
COc1cc(-c2ccnc3[nH]ccc23)ccc1CN [Compound 268]

>  <readout-qualifier>
=

>  <IC50 [nM]>
618

$$$$
>  <molecule>
Cc1nnc(C2(c3ccc(-c4ccnc5[nH]cc(F)c45)cc3)CCN(C(=O)OC(C)(C)C)CC2)o1 [Compound 195]

>  <readout-qualifier>
>

>  <IC50 [nM]>
10000

$$$$
>  <molecule>
c1cc(-c2ccc(C3CCNCC3)cc2)c2cc[nH]c2n1 [Compound 188]

>  <readout-qualifier>
=

>  <IC50 [nM]>
2200

$$$$
>  <molecule>
O=C1NCc2cc(-c3ccnc4[nH]ccc34)ccc21 [Compound 258]

>  <readout-qualifier>
>

>  <IC50 [nM]>
10000

$$$$
>  <molecule>
C[C@@H]1CN(C2CCC2)C[C@H](C)[C@@]1(O)c1c(F)cc(-c2ccnc3[nH]cc(F)c23)cc1F [Compound 46]

>  <readout-qualifier>
=

>  <IC50 [nM]>
358

$$$$
>  <molecule>
OC1(c2ccc(-c3ccnc4[nH]cc(Br)c34)cc2Cl)C2CNCC1C2 (stereo not drawn) [Compound 121]

>  <readout-qualifier>
=

>  <IC50 [nM]>
307

$$$$
>  <molecule>
Cc1cc(-c2ccnc3[nH]ccc23)ccc1CN [Compound 266]

>  <readout-qualifier>
=

>  <IC50 [nM]>
249

$$$$
>  <molecule>
CC(=O)N1C[C@@H](C)[C@](O)(c2c(F)cc(-c3ccnc4[nH]cc(F)c34)cc2F)[C@@H](C)C1 [Compound 94]

>  <readout-qualifier>
=

>  <IC50 [nM]>
4750

$$$$
>  <molecule>
N#Cc1cc(C2CCNCC2)ccc1-c1ccnc2[nH]ccc12 [Compound 174]

>  <readout-qualifier>
=

>  <IC50 [nM]>
9000

$$$$
>  <molecule>
Cc1cc(-c2ccnc3[nH]cc(F)c23)cc(C)c1CN [Compound 222]

>  <readout-qualifier>
=

>  <IC50 [nM]>
470

$$$$
>  <molecule>
Cc1cc(-c2ccnc3[nH]ccc23)cnc1CN [Compound 252]

>  <readout-qualifier>
=

>  <IC50 [nM]>
3160

$$$$
>  <molecule>
COC(=O)c1c[nH]c2nccc(-c3ccc(C4CCNCC4)c(-c4ccc(CN)cc4)c3)c12 [Compound 152]

>  <readout-qualifier>
=

>  <IC50 [nM]>
4410

$$$$
>  <molecule>
O=S(=O)(CCC1CC1)N1CCC(c2ccc(-c3ccnc4[nH]cc(F)c34)cc2Cl)CC1 [Compound 163]

>  <readout-qualifier>
>

>  <IC50 [nM]>
10000

$$$$
>  <molecule>
Cc1cc(-c2ccnc3[nH]cc(F)c23)cc(F)c1[C@@]1(O)[C@H](C)CN(C(=O)CN)C[C@@H]1C [Compound 61]

>  <readout-qualifier>
=

>  <IC50 [nM]>
197

$$$$
>  <molecule>
c1cc(-c2ccc(CN3CCCC3)cc2)c2cc[nH]c2n1 [Compound 277]

>  <readout-qualifier>
=

>  <IC50 [nM]>
2200

$$$$
>  <molecule>
OC1(c2ccc(-c3ccnc4[nH]cc(Br)c34)cc2Cl)CNC1 [Compound 123]

>  <readout-qualifier>
=

>  <IC50 [nM]>
158

$$$$
>  <molecule>
C[C@@H]1CN(Cc2ccccn2)C[C@H](C)[C@@]1(O)c1c(F)cc(-c2ccnc3[nH]cc(F)c23)cc1F [Compound 17]

>  <readout-qualifier>
=

>  <IC50 [nM]>
1070

$$$$
>  <molecule>
NCc1ccc(-c2cc(-c3ccnc4[nH]cc(Br)c34)ccc2C2CCNCC2)cc1 [Compound 151]

>  <readout-qualifier>
=

>  <IC50 [nM]>
170

$$$$
>  <molecule>
c1cc(-c2ccc(C3CC4CCC(C3)N4)cc2)c2cc[nH]c2n1 (stereo not drawn) [Compound 184]

>  <readout-qualifier>
=

>  <IC50 [nM]>
940

$$$$
>  <molecule>
Cc1cc(C2CCNCC2)ccc1-c1ccnc2[nH]ccc12 [Compound 176]

>  <readout-qualifier>
>

>  <IC50 [nM]>
10000

$$$$
>  <molecule>
CC(C)(C)OC(=O)N1CCC(c2ccc(-c3ccnc4[nH]cc(F)c34)cc2Cl)CC1 [Compound 170]

>  <readout-qualifier>
>

>  <IC50 [nM]>
10000

$$$$
>  <molecule>
NCc1ccc(-c2ccnc3[nH]cc(-c4ccccc4F)c23)cc1 [Compound 248]

>  <readout-qualifier>
=

>  <IC50 [nM]>
2840

$$$$
>  <molecule>
C[C@@H]1CN(C)C[C@H](C)[C@@]1(O)c1ccc(-c2ccnc3[nH]ccc23)nc1 [Compound 40]

>  <readout-qualifier>
=

>  <IC50 [nM]>
1540

$$$$
>  <molecule>
CC(C)(C)OC(=O)N1CCC(O)(c2ccc(-c3ccnc4[nH]ccc34)cc2)CC1 [Compound 141]

>  <readout-qualifier>
>

>  <IC50 [nM]>
10000

$$$$
>  <molecule>
OC1(c2c(F)cc(-c3ccnc4[nH]cc(F)c34)cc2F)CC2(CN(C3COC3)C2)C1 [Compound 138]

>  <readout-qualifier>
=

>  <IC50 [nM]>
2710

$$$$
>  <molecule>
Cc1cc(-c2ccnc3[nH]cc(F)c23)cc(F)c1[C@@]1(O)[C@H](C)CN(C(=O)C2(N)CC(F)(F)C2)C[C@@H]1C [Compound 62]

>  <readout-qualifier>
=

>  <IC50 [nM]>
5880

$$$$
>  <molecule>
CC(C)(N)c1ccc(-c2ccnc3[nH]cc(Br)c23)cc1-c1ccccc1 [Compound 207]

>  <readout-qualifier>
=

>  <IC50 [nM]>
267

$$$$
>  <molecule>
CC(C)(N)c1ccc(-c2ccnc3[nH]ccc23)cc1-c1ccccc1 [Compound 206]

>  <readout-qualifier>
=

>  <IC50 [nM]>
1620

$$$$
>  <molecule>
Cc1cc(-c2ccnc3[nH]cc(F)c23)cc(Cl)c1[C@@]1(O)[C@H](C)CN(C2COC2)C[C@@H]1C [Compound 49]

>  <readout-qualifier>
=

>  <IC50 [nM]>
125

$$$$
>  <molecule>
C[C@@H]1CN(C2COC2)C[C@H](C)C1(O)c1cnc(-c2ccnc3[nH]cc(F)c23)cc1F (stereo partly drawn) [Compound 36]

>  <readout-qualifier>
>

>  <IC50 [nM]>
1000

$$$$
>  <molecule>
C[C@@H]1CN(C)C[C@H](C)[C@@]1(O)c1c(F)cc(-c2ccnc3[nH]cc(F)c23)cc1F [Compound 37]

>  <readout-qualifier>
=

>  <IC50 [nM]>
477

$$$$
